Assay: Stability of cannabinoid and Vitamin E components of Beverage 2 (AB Red) stored at 8° C. and 21-25° C., LCMSMS over 570 days
Details: 8° C., 5 days
# strict inequality: Stability of Cannabinoids in AB Red < 3 µg/mL yields t, everything else yields f

I'd appreciate it if you could check whether CCCCCc1cc(O)c2c(c1)OC(C)(C)[C@@H]1CCC(C)=C[C@@H]21 [D9 THC, delta-9-tetrahydrocannabinol, reference compound] has Stability of Cannabinoids in AB Red smaller than 3 µg/mL.
f

Please let me know if CCCCCc1cc(O)c2c(c1)OC(C)(CCC=C(C)C)C=C2 (stereo not drawn) [CBC, cannabichromene] shows Stability of Cannabinoids in AB Red below 3 µg/mL.
t

Given C=C(C)[C@@H]1CCC(C)=C[C@H]1c1c(O)cc(CCC)cc1O [CBDV, cannabidivarin] , is recorded Stability of Cannabinoids in AB Red strictly lower than 3 µg/mL?
t

Quick check: does C=C(C)[C@@H]1CCC(C)=C[C@H]1c1c(O)cc(CCCCC)c(C(=O)O)c1O [CBDA, cannabidiolic acid] have Stability of Cannabinoids in AB Red under 3 µg/mL?
t

Criterion: Stability of Cannabinoids in AB Red strictly below 3 µg/mL. Is it met by CCCCCc1cc(O)c2c(c1)OC1(C)CCC3C1C2C3(C)C (stereo not drawn) [CBL, cannabicyclol] ?
t

In plain terms, does CCCCCc1cc(O)c2c(c1)OC(C)(C)c1ccc(C)cc1-2 [CBN, cannabinol] come in under 3 µg/mL for Stability of Cannabinoids in AB Red?
t

I wonder whether CCCCCc1cc(O)c(C/C=C(\C)CCC=C(C)C)c(O)c1 [CBG, cannabigerol] has Stability of Cannabinoids in AB Red below 3 µg/mL. Can you tell?
f

Consider CCCc1cc(O)c2c(c1)OC(C)(C)[C@@H]1CCC(C)=C[C@@H]21 [THCV, delta-9-tetrahydrocannabivarin] . Does its Stability of Cannabinoids in AB Red lie strictly below 3 µg/mL?
f

Consider CCCCCc1cc2c(c(O)c1C(=O)O)[C@@H]1C=C(C)CC[C@H]1C(C)(C)O2 [D9 THCA, delta-9-tetrahydrocannabinolic acid] . Does its Stability of Cannabinoids in AB Red lie strictly below 3 µg/mL?
t
